Each record here notes measured interaction score.
- Measurement Target: T1, P4-AA
- T1 chain: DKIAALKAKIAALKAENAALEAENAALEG
- Assay Protocol: two-hybrid library CCmax;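 note: natural log of median RNA to DNA barcode read ratio; higher means stronger binding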
- Run Parameters: mean of both orientations
The response must contain the number and no unit.

# Binder, interaction score
rows = [
    ("DKNAALKAKIAALKAKIAALKAENAALEG [P12-AA]", -1.68),
]

According to the records, this binder DKIAALKAKNAALKAKNAALKAKIAALKG [P2-AA] displays interaction score of -0.357

According to the records, this binder KELQAIEKQLAQLQWKAQARKKKLAQLKK [4H_APH] displays interaction score of -1.9

According to the records, this binder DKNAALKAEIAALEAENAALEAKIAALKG [4H3606-AA] displays interaction score of -0.573
